Test system: HOP-62 NSCLC
experimentDescription: NCI tumour cell line growth inhibition, 48 h
Where a SMILES comes first, the peptide text is derived from it. The star is where a group is joined. Fmoc = O=C(OCC1c2ccccc2-c2ccccc21)*; Boc = CC(C)(C)OC(=O)*

compound	targetDesc	TGI
O=c1[nH]c(Nc2cc(Cl)cc(Cl)c2)nc2nc[nH]c12	HOP-62 NSCLC	> 75 µM
CCOC(=O)C1=C(C)N(c2ccc(C)cc2)C2=C(C(=O)N(c3ccccc3)C2c2ccccc2)C1c1ccccc1 (configuration not stated)	HOP-62 NSCLC	> 25 µM
CC(C)(C)OC(=O)NCCCCC(NC(=O)OCC1c2ccccc2-c2ccccc21)C(=O)N1CCCC1C(=O)NCC(N)=O (stereo not drawn) (Fmoc-Lys(Boc)-Pro-Gly-NH2; configuration not given here)	HOP-62 NSCLC	> 100 µM
O=C(O)c1cnc2[nH]ccn2c1=O	HOP-62 NSCLC	> 100 µM
COc1cc(C2C(C(=O)O)=C(COC(C)=O)Oc3cc4c(cc32)OCO4)cc(OC)c1OC (configuration not stated)	HOP-62 NSCLC	> 100 µM
O=C(O)c1cccc(N=Nc2c(S(=O)(=O)O)ccc3c2C(=O)c2ccccc2C3=O)c1O	HOP-62 NSCLC	> 100 µM
CN(C)c1nncc2[nH]cnc12	HOP-62 NSCLC	> 100 µM
